Reference source for all entries: PubChem BioAssay (NCI)

- System: NCI-H522 lung
- Protocol details: NCI-60 one-dose screen, 48 h
- Cond: 10 µM unless noted
Compounds without any hit were thinned out: in the full panel of roughly 83,000, 20% have a hit. Calls of active or inactive are those of the source. The calls were made as follows: active = growth percent below 10; inactive = the rest.
Outcome codes: active, inactive

>  <Compound>
COc1ccccc1S(=O)(=O)Nc1ccc2c3c(cc(CCC(=O)NCCCCNc4cccc5c4C(=O)N(C4CCC(=O)NC4=O)C5=O)cc13)C(=O)N2C (stereo not given)

>  <Category>
inactive

$$$$
>  <Compound>
Cc1ccc(C)c2c1sc1nc(N3CCOCC3)c(C#N)c(=O)n12

>  <Category>
inactive

$$$$
>  <Compound>
CN1CC(c2ccc(Br)cc2)C(C(=O)c2ccc(Br)cc2)C12C(=O)Nc1ccccc12 (stereo not given)

>  <Category>
inactive

$$$$
>  <Compound>
N#CC1=C(N)Oc2c(sc3c(F)cccc23)C1c1ccc([N+](=O)[O-])cc1 (stereo not given)

>  <Category>
active

$$$$
>  <Compound>
O=c1c2ccccc2n(C[C@H]2CO2)c2ccccc12

>  <Category>
active

$$$$
>  <Compound>
Fc1cc2[nH]ncc2c2c3c(c(-c4cn[nH]c4C(F)(F)F)nc12)CCCC3

>  <Category>
active

$$$$
>  <Compound>
CN(C)CCCn1c2c(c3ccncc3c1=O)C(=O)c1ccccc1-2

>  <Category>
active

$$$$
>  <Compound>
CS(=O)(=O)Nc1cc(-c2ccc3ncnc(Nc4ccc5c(cnn5Cc5ccncc5)c4)c3c2)cnc1Cl

>  <Category>
inactive

$$$$
>  <Compound>
COC(=O)c1sccc1-c1cc(O)c(C(=O)Nc2ccccc2)s1

>  <Category>
inactive

$$$$
>  <Compound>
Cc1cc(=O)n(C(=S)Nc2ccc(Cl)cc2)c2cc(O)ccc12

>  <Category>
inactive

$$$$
>  <Compound>
COc1nc(/C=C\Nc2ccc3c(c2)OCCOCCOCCOCCO3)nc(OC)n1

>  <Category>
inactive

$$$$
>  <Compound>
Cc1ccc2c(c1)sc1nc(-c3c[nH]c4ccccc34)c(Nc3ccccc3)n12

>  <Category>
inactive

$$$$
>  <Compound>
Cc1nc2sc(C(=O)Nc3cccc(Cl)c3C)c(N)c2cc1C(=O)/C=C/c1ccccc1

>  <Category>
active

$$$$
>  <Compound>
COc1cc(-c2ccc(-c3ccc(C(=N)N)cc3)s2)cc(OC)c1OC

>  <Category>
inactive

$$$$
>  <Compound>
N#C/C(=C\c1ccc(-c2cccc(Cl)c2)o1)C(=O)Nc1ncc(Cc2ccc(Cl)cc2)s1

>  <Category>
inactive

$$$$
>  <Compound>
O=C(Nc1cc(Cl)cc(Cl)c1)Oc1c(Cl)c(Cl)c(Cl)c(Cl)c1Cl

>  <Category>
inactive

$$$$
>  <Compound>
CC1(C)N=C(N)N=C(N)N1c1ccc(S(=O)(=O)Nc2nccs2)cc1

>  <Category>
inactive

$$$$
>  <Compound>
C1CCC(N2CN3c4nonc4N4CN(C5CCCCC5)CN5c6nonc6N(C2)C3C45)CC1 (stereo not given)

>  <Category>
inactive

$$$$
>  <Compound>
O=CCCCOCc1ccccc1

>  <Category>
inactive

$$$$
>  <Compound>
CCCC(O)Cn1ncc(C(=O)OCC)c1NC(=O)NCc1cccc(C(F)(F)F)c1 (stereo not given)

>  <Category>
inactive

$$$$
>  <Compound>
CC(C)C1C2=C(NCCN1C(=O)c1ccncc1)C(C)(C)N(Cc1ccccc1)C2=O (stereo not given)

>  <Category>
inactive

$$$$
>  <Compound>
CCOC(=O)c1cn2ncnc(Oc3ccc(NC(=O)NC4CC4)c(Cl)c3)c2c1C

>  <Category>
inactive

$$$$
>  <Compound>
COc1cc2ncnc(Nc3ccc(F)c(Cl)c3)c2cc1OCC(=O)N1CCOCC1

>  <Category>
inactive

$$$$
>  <Compound>
Cc1ccc(OCCOCCOCCOc2ccc(C)n(O)c2=S)c(=S)n1O

>  <Category>
inactive

$$$$
>  <Compound>
Cc1nc([P+](c2ccccc2)(c2ccccc2)c2ccccc2)c(N2CCCCC2)o1

>  <Category>
inactive

$$$$
>  <Compound>
COc1ccc2[nH]cc(-c3nonc3-c3c[nH]c4ccc(Br)cc34)c2c1

>  <Category>
active

$$$$
>  <Compound>
O=C1C=C(SCCO)C(=O)c2ccccc21

>  <Category>
inactive

$$$$
>  <Compound>
Nc1c(C(=O)Nc2cccc3ncccc23)sc2nc3c(cc12)CN(Cc1ccccc1)CC3

>  <Category>
inactive

$$$$
>  <Compound>
C=C(C)[C@@H]1CC[C@]2(C)[C@H](C=CC3=C4C[C@@](C)(CO)CC[C@]4(C)CC[C@]32C)[C@@]1(C)CCCN

>  <Category>
active

$$$$
>  <Compound>
COc1ccc(-c2nc3ccc(C)cc3c3c2c(=O)n(C)c(=O)n3C)cc1OC

>  <Category>
inactive

$$$$
>  <Compound>
COc1ccc(C(=O)/C=C/c2ccccc2)cc1S(N)(=O)=O

>  <Category>
inactive

$$$$
>  <Compound>
C#COc1cccc(Nc2ncnc3cc(NC(=O)[C@H](C)Cl)ccc23)c1

>  <Category>
active

$$$$
>  <Compound>
Cc1oc(-c2ccc(Cl)cc2)nc1C1=NN(C(=O)c2ccncc2)C(c2ccccc2)C1 (stereo not given)

>  <Category>
inactive

$$$$
>  <Compound>
ClC(Cl)c1nc(-c2ccccc2)n2nc(-c3ccccc3)cc2n1

>  <Category>
inactive

$$$$
>  <Compound>
CCN1C2CCC1/C(=C\c1ccccc1)C(=O)/C2=C/c1ccccc1

>  <Category>
inactive

$$$$
>  <Compound>
O=C(OCc1ccc2c(Cl)cc(Cl)c(O)c2n1)N1CCN(C(=O)c2cc3ccccc3[nH]2)CC1

>  <Category>
inactive

$$$$
>  <Compound>
Nc1nc2ccccc2c2c(=O)c3cc(Cl)ccc3sc12

>  <Category>
inactive

$$$$
>  <Compound>
OC1CSSC1Cn1cnc2c(Nc3ccc(OCc4cccc(F)c4)c(Cl)c3)ncnc21 (stereo not given)

>  <Category>
active

$$$$
>  <Compound>
Cc1cc(NCCCNc2ccnc3cc(Cl)ccc23)nc(Nc2ccc(C(=O)N3CCCCC3)cc2)n1

>  <Category>
active

$$$$
>  <Compound>
Cc1cccc(N2C(=O)/C(=C/C(Cl)=C/c3ccc([N+](=O)[O-])cc3)SC2=S)c1C

>  <Category>
active

$$$$

###

- Tested on: U251 CNS
- Protocol details: NCI-60 one-dose screen, 48 h (100 = growth as untreated, 0 = no growth, -100 = all killed)
- Cond: 10 µM unless noted
About 83,000 compounds went through this panel and 20% of them were active in at least one assay; those are over-represented in the sample as a whole.
Below, each entry is listed alongside its reported growth.

>  <Molecule>
Cn1c(C#N)ccc1-c1ccc(F)c(NC(=O)c2ccc(F)cc2)c1

>  <Unit descriptor>
%

>  <growth>
73.4

$$$$
>  <Molecule>
S=c1ccnc[nH]1

>  <Unit descriptor>
%

>  <growth>
102

$$$$
>  <Molecule>
Nc1cc(-c2ccc(Cl)cc2)nn1-c1nnc(/C=C/c2ccco2)c(=O)[nH]1

>  <Unit descriptor>
%

>  <growth>
50.6

$$$$
>  <Molecule>
CC(O)CNC(Cc1ccccc1)c1ccc2c(c1)OCO2 (stereo unspecified)

>  <Unit descriptor>
%

>  <growth>
97.3

$$$$
>  <Molecule>
COc1ccc(-c2cn(Cc3cc4ccccc4s3)nn2)cc1OCCN1CCCCC1

>  <Unit descriptor>
%

>  <growth>
74.5

$$$$
>  <Molecule>
O=C1CCC(C(=O)N/N=C/c2cc(F)ccc2F)N1 (stereo unspecified)

>  <Unit descriptor>
%

>  <growth>
98

$$$$

###

- System: OVCAR-8 ovarian
- Protocol details: NCI-60 one-dose screen, 48 h
- Cond: 10 µM unless noted
About 83,000 compounds went through this panel and 20% of them were active in at least one assay; those are over-represented in the sample as a whole. The source made the active and inactive calls. Rule for the calls: active = growth percent below 10; inactive = the rest.
Outcome codes: active, inactive

>  <Compound>
Cn1c(C#N)ccc1-c1ccc(F)c(NC(=O)c2ccc(F)cc2)c1

>  <Category>
inactive

$$$$
>  <Compound>
N#C/C(=C\c1ccc(-c2cccc(Cl)c2)o1)C(=O)Nc1ncc(Cc2ccc(Cl)cc2)s1

>  <Category>
inactive

$$$$
>  <Compound>
COc1ccc2c(c1)c(-c1nc(-c3ccc4ccccc4c3)cs1)cn2C

>  <Category>
inactive

$$$$
>  <Compound>
CC(C)C1C2=C(NCCN1C(=O)c1ccncc1)C(C)(C)N(Cc1ccccc1)C2=O (stereo not given)

>  <Category>
inactive

$$$$
>  <Compound>
CSc1nc2ccc(C)cc2cc1/C=C1/C=C(c2ccccc2)NC1=O

>  <Category>
inactive

$$$$
>  <Compound>
COc1cc(C[C@H]2COc3cc(O)cc(O)c3C2=O)ccc1O

>  <Category>
inactive

$$$$
>  <Compound>
O=[N+]([O-])c1ccccc1Sc1ccccc1[N+](=O)[O-]

>  <Category>
inactive

$$$$
>  <Compound>
O=C1/C(=C/c2ccc(Cl)cc2)CN(C(=O)C(Cl)Cl)C/C1=C\c1ccc(Cl)cc1

>  <Category>
active

$$$$
>  <Compound>
O=C1CCCC1[n+]1ccccc1 (stereo not given)

>  <Category>
inactive

$$$$
>  <Compound>
Cn1cc(-c2nonc2-c2c[nH]c3ccccc23)c2cc(Br)ccc21

>  <Category>
inactive

$$$$
